details: 327.9 K; 101.33 kPa; Liquid; Pulse-echo method
VALUE KIND: speed of sound (m/s)

>>> experimental_result("CCC(=O)[O-].C[NH2+]CCO [2-hydroxy-N-methylethanaminium propionate]")
1601.7
>>> experimental_result("C[NH2+]CCO.O=C[O-] [2-hydroxy-N-methylethanaminium formate]")
1757.5
>>> experimental_result("CC(C)C(=O)[O-].C[NH2+]CCO [2-hydroxy-N-methylethanaminium isobutyrate]")
1527.1
>>> experimental_result("CCCCC(=O)[O-].C[NH2+]CCO [2-hydroxy-N-methylethanaminium pentanoate]")
1457
>>> experimental_result("CCCC(=O)[O-].C[NH2+]CCO [N-methyl-2-hydroxyethylammonium butanoate]")
1521.4
